EXPERIMENT: yeast display, Sf9 membrane polyspecificity reagent, FACS + sequencing; frameworks hold sequencing errors

SEQUENCE_CONTENT	polyreactivity (PSR sort gate)
QVQLVESVGGLVQAGGSLRLSCAASGITFAWYALGWYRQAPGKERELVAAITWSGDSTYYADSVKGRFTISRDNAKNTVYLQMNSLKPEDTAVYYCAAAYFSSGYKYYYWGQGTQVTVSS	high polyreactivity
QVQLVESGGGLVQAGGSLRLSCAASGSIFGPYAMGWYRQAPGKERELVAAISNGGTTYYADSVKGRFTISRDNAKYTVYLQMNSLKPEDTAVYYCNAEQYLYYILGNYDYWGQGTQVTVSS	low polyreactivity
QVQLVESGGGLVQAGGSLRLSCAASGRTFLVFAMGWYRQAPGKERELVAAITRDDNTNYADSVKGRFTISRDNAKNTVYLQMNSLKPEDTAVDYCAADALVYRLGNYYFIFDYWGQGTEVTVSS	low polyreactivity
QVQLVESGGGLVQAGGSLRLSCAASGSTFAVYAMGWYRQAPGKERELVAAITWSGGSTYYADSVKGRFTISRDNAKNTVYFQMNSLKPEDTAVYYCAAAGYYSDMDYWGQGTQVTVSS	low polyreactivity
QVQLVESGGGLVQAGGSLRLSCAASGRTFRTYTMGWYRQAPGKEREFVAAITSSGASTYYADSVKGRFTISRDNAKNTVYLQKNSLKPEDTAFYYCAARYGRRLVWVPALLYDYWGQGTQVTVSS	high polyreactivity

###

EXPERIMENT: yeast display, Sf9 membrane polyspecificity reagent, FACS + sequencing; frameworks hold sequencing errors

SEQUENCE_CONTENT	polyreactivity (PSR sort gate)
QVQLVESGGGLVQAGGSLRLSCAASGYIFVKNAMGWYRQAPGKERELVAAISTRGGRTYYADSVKGRFTISRDNAKNTVYLQMNSLKPEDTAVYYCAAVHQTSYYDANSYGYWGQGTQVTVSS	high polyreactivity
QVQLVESGGGLDQAGGSLRLICAASGSTFRYNAMGWYRQAPGKERELVAAISSSGGSTRYADSVKGRFTISRDNAKNTVYLQMNSLKPEDTAVYYCAVRFYDWRYYYWGQGTQVTVSS	high polyreactivity
QVQLVESGGCLVQAGGSLRLSCAASGSTFGVNAMGWYRKAPGKERELVADISVRTDSTYYADSVKGRFTISRDNAKNTVYLQMNSLKAEDTAVYDCNAGLVIEYDYWGQGTQVSVSS	low polyreactivity
QVQLVESGGGLVQAGGSLRLSCAASGSTFAVYTMGWYRQAPGKERELVAAISSSGGSTYLRRSVKGRFTISRDNAKNTVYLQMNSLKPEDTAVYYCAAQWYAGHWHVPYEYWGQGTQVTVSS	high polyreactivity
QVQLVESGVGLVQAGGSLRLSCAASGRIFVKYAMGWYRQAPGQEREFVAAITQGGGRTFYADSVKGRFTSSRDNAKNTVYLQMNSLKPEDTAVYYCAATGRGYGRRYFVVYRYDYWGQGTQVTVSS	high polyreactivity
QVQLEESGGGLVQAGGSLRLSSAASGTISATYAMGWYRQAPGKERELVAAISRNGGSTYYADSVKGRFTISRDNAKNTVYLQMNSLKPEDTAVYYCATSSSKSMYWGQGTQVTVSS	high polyreactivity
QVQLVESGGGLVQAGGSLRLSWAASGSIFVHNTMGWYRQAPGKERELVAAITRSVGRTYFADSVKGRFTISRDNAKNTVYLQMTSLQPADTAVYYCAKPASKGYYWGQGTQVTVSS	high polyreactivity
QVQLVESGGGLVQAGGSLRISCAASGLTSVTYAMGWYRQAPGKERELVAAITSRAGSTYYADSVKGRFTISRDNAKNTVYLQMNSLKPEDTAVYYCAKDIIRKVYAGYVGRYDYWGQGTQVTVSS	low polyreactivity
QVQLVESVGGLVQAGGSLRLSCAASGSIIFTNVMGWYRQAPGKDREFVAAITGGGGSTYYADSVKGRFTISRDNAKNTVYLQMNSLKPEDTAVYYCATKAKPRSGYNYWGQGTQVTVSS	low polyreactivity
QVQLVESGGGLVQAGGSLRLSCAASGLTFAYYVMGWYRQAPGKERELVATITRGGDTYYADSVKGRFTISRDNAKITVYLQMYSLKPEDTAVYYCNAYLRSGSMDYWGQGTQVTVSS	high polyreactivity
QVQLVESGGGLVQAGGSLRLSCPASGFNFPYYAKGWYRQAPGKEREFVAAISSGGNTNYADSVKGRFTISRDNAKNTVYLQMNSLKPEDTAVFYCAAGFLRYLNWSVKYDYWGQGTQVTVSS	low polyreactivity
